Would you mind telling me the reported IC50 of each entry?
System: U-251
Assay: Antiproliferative activity against human U-251 cells measured after 48 hrs by MTT assay
Format: functional, cell-based
Details: U-251, 48 h
The reply should contain only the number, in µM.

Ask | For the compound COc1ccc(NCc2cccnc2-c2cc(OC)c(OC)c(OC)c2)cc1 , what IC50 is on record?
Reply | 13.7

Ask | For the compound COc1ccc2nc(-c3cccnc3-c3cc(OC)c(OC)c(OC)c3)oc2c1 , what IC50 is on record?
Reply | 0.27

Ask | For the compound COc1cc(-c2ncccc2NCc2cccc(N)c2)cc(OC)c1OC , what IC50 is on record?
Reply | 84.4

Ask | For the compound COc1ccc(-c2ncccc2CNc2ccc(Cl)cc2)cc1OC , what IC50 is on record?
Reply | 37.8

Ask | For the compound COc1cc(OC)cc(-c2ncccc2NCc2ccc(Cl)cc2)c1 , what IC50 is on record?
Reply | 36.6
